The measured values listed here are drawn from patent US9518000B2.

study_target: UniProt Q5NUL3
Sequence (Q5NUL3 whole entry): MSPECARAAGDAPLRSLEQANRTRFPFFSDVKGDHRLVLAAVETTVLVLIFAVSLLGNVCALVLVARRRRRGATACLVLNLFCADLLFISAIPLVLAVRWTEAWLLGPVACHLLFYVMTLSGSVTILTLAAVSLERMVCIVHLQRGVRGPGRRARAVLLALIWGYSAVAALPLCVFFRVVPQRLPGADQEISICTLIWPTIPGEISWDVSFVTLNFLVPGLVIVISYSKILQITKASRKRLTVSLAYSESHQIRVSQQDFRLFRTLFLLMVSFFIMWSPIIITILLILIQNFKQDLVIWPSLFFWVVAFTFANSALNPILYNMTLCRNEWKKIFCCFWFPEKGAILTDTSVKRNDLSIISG
assay_explanation: GPR120 pERK AlphaScreen SureFire Assay (human GPR120 pERK assay)
settings: CHOA12 or CHO-K1 cells stably transfected with the short form of human GPR120 receptor; phosphorylated ERK; read-out: EC50 values measured in the human GPR120 pERK assay
pEC50: −log10 of the molar value.
reported_metric: pEC50

| compound | reported_metric | result |
| --- | --- | --- |
| Cc1ccc(COC23CCC(CCCC(=O)O)(CC2)C3)cc1F [Example 12] | pEC50 | 5.17 |
| O=C(O)CCCC12CCC(OCc3ccsc3Br)(CC1)C2 [Example 54] | pEC50 | 5.77 |
| O=C(O)CCCC12CCC(OCc3cc(F)cc(Oc4ccccc4)c3)(CC1)C2 [Example 34] | pEC50 | 6.40 |
| O=C(O)CCC12CCC(OCCc3cccc(Oc4ccccc4)c3)(CC1)C2 [Example 88] | pEC50 | 5.58 |
| Cc1cc(COC23CCC(CCCC(=O)O)(CC2)C3)ccc1F [Example 13] | pEC50 | 5.12 |
| O=C(O)CCCC12CCC(OCc3cccc(SC(F)(F)F)c3)(CC1)C2 [Example 50] | pEC50 | 6.27 |
| O=C(O)CCCC12CCC(OCc3csc4ccc(Cl)cc34)(CC1)C2 [Example 30] | pEC50 | 6.07 |
| O=C(O)CCCC12CCC(OCc3cccc(Oc4ccccc4)c3)(CC1)C2 [Example 15] | pEC50 | 6.44 |
| O=C(O)COCC12CCC(OCc3ccccc3Oc3ccccc3)(CC1)C2 [Example 72] | pEC50 | 5.95 |

###

The following molecules are shown together with reported EC50 values.
study_target: UniProtKB Q5NUL3
assay_explanation: GPR120 pERK AlphaScreen SureFire Assay (human GPR120 pERK assay)
settings: CHOA12 or CHO-K1 cells stably transfected with the short form of human GPR120 receptor; phosphorylated ERK; read-out: EC50 values measured in the human GPR120 pERK assay
reported_metric: EC50 (nM)

| molecule | study_target | result |
| --- | --- | --- |
| O=C(O)CCCC12CCC(OCc3cc(F)ccc3OC(F)(F)F)(CC1)C2 [Example 44] | UniProtKB Q5NUL3 | 930 |
| O=C(O)CCCC12CCC(OCc3cc(F)cc(C(F)(F)F)c3)(CC1)C2 [Example 25] | UniProtKB Q5NUL3 | 640 |
| O=C(O)CCCC12CCC(OCc3c(F)ccc(F)c3Cl)(CC1)C2 [Example 56] | UniProtKB Q5NUL3 | 1880 |
| O=C(O)CCCC12CCC(OCc3cccc(-c4cccs4)c3)(CC1)C2 [Example 61] | UniProtKB Q5NUL3 | 750 |
| Cc1nc(-c2cccc(COC34CCC(CCCC(=O)O)(CC3)C4)c2)no1 [Example 37] | UniProtKB Q5NUL3 | 3120 |
| O=C(O)CCC12CCC(OCCc3cccc4ccccc34)(CC1)C2 [Example 87] | UniProtKB Q5NUL3 | 1310 |
| COc1ccc(COC23CCC(CCCC(=O)O)(CC2)C3)c(F)c1 [Example 42] | UniProtKB Q5NUL3 | 9100 |
| COc1ccc(Br)cc1COC12CCC(CCCC(=O)O)(CC1)C2 [Example 60] | UniProtKB Q5NUL3 | 4150 |
| CC(C)Oc1ccccc1COC12CCC(CCCC(=O)O)(CC1)C2 [Example 36] | UniProtKB Q5NUL3 | 1550 |
